- assayedTarget: Recombinant human hepsin (4776-SE-010, R&D Systems), activated (human, UniProt P05981)
- methodSummary: fluorogenic inhibition assay
- Source text: […]
pKi: −log10 of the molar value. Starred links: 1 amine or outer side, 2 acyl side, 3 side chain; linkers in the order of their positions; H or OH if unused. *: point of attachment. Kbt‑6‑CONH = ketobenzothiazole-6-CONH (amide link to Val), O=C(c1ccc2nc([*:1])sc2c1)[*:2]; kbt = C-terminal ketobenzothiazole, c1ccc2sc(*)nc2c1; Fmoc = O=C(OCC1c2ccccc2-c2ccccc21)*
Mark no for pKi values under 9, and yes for everything at or above.

Input line: Quick check: does Fmoc-Gly-Arg-kbt [Fmoc-GR-kbt] have pKi greater than or equal to 9?
Output line: no

Input line: Hello, I need to know if {Cy5.5}-KRLR-kbt [Cy5.5-KRLR(SEQ ID NO: 8)-kbt] has measured pKi not below 9. Thanks!
Output line: no

Input line: For this binder, is measured pKi 9 or higher? Ac-KQLR-{Kbt‑6‑CONH-Val-NH2} [Ac-KQLR(SEQ ID NO: 1)-Kbt-Val-NH2]
Output line: yes

Input line: Check the entry Fmoc-Thr-Arg-kbt [Fmoc-TR-kbt] : does pKi equal or exceed 9?
Output line: no

Input line: Is pKi at least 9? Consider Fmoc-Phe-Arg-kbt [Fmoc-FR-kbt]
Output line: no
